Assay: Lung-tissue pharmacokinetics of PG–OJ components in tumor-bearing mice (UPLC–MS/MS)
Assay type: in vivo, BALB/c nude male mice
Settings: mouse, in vivo, po
Give measured log10 of T1/2 for each item. Keep answers brief.
On a log10 scale: recorded T1/2, unit h.

Problem: log10 of T1/2 for CC1(C)CC[C@]2(C(=O)O[C@@H]3O[C@H](CO)[C@@H](O)[C@H](O)[C@H]3O)CC[C@]3(C)C(=CC[C@@H]4[C@@]5(C)CC[C@H](O[C@@H]6O[C@H](C(=O)O)[C@@H](O)[C@H](O)[C@H]6O[C@@H]6O[C@H](CO)[C@@H](O)[C@H](O)[C@H]6O)C(C)(C)[C@@H]5CC[C@]43C)[C@@H]2C1 [Ginsenoside Ro] ?
Result: 0.62

Problem: log10 of T1/2 for CC(C)(O)[C@H]1CC[C@@](C)([C@H]2CC[C@]3(C)[C@@H]2[C@H](O)C[C@@H]2[C@@]4(C)CC[C@H](O)C(C)(C)[C@@H]4[C@@H](O[C@@H]4O[C@H](CO)[C@@H](O)[C@H](O)[C@H]4O)C[C@]23C)O1 [Pseudoginsenoside RT5] ?
Result: 1.02

Problem: log10 of T1/2 for `Cc1c(O)c(C)c2c(c1O)C(=O)[C@H](Cc1ccc3c(c1)OCO3)CO2` ?
Result: 1.31

Problem: log10 of T1/2 for CC(C)=CCC[C@](C)(O[C@@H]1O[C@H](CO)[C@@H](O)[C@H](O)[C@H]1O)[C@H]1CC[C@]2(C)[C@@H]1[C@H](O)C[C@@H]1[C@@]3(C)CC[C@H](O)C(C)(C)[C@@H]3[C@@H](O[C@@H]3O[C@H](CO)[C@@H](O)[C@H](O)[C@H]3O[C@@H]3OC[C@@H](O)[C@H](O)[C@H]3O)C[C@]12C [Notoginsenoside R1] ?
Result: 0.09

Problem: log10 of T1/2 for `COc1ccc(C[C@@H]2COc3c(C)c(O)c(C)c(O)c3C2=O)cc1` ?
Result: 0.81

* * *

Assay: Lung-tissue pharmacokinetics of PG–OJ components in tumor-bearing mice (UPLC–MS/MS)
Type: in vivo, BALB/c nude male mice
Conditions: lung tissue, A549 tumor-bearing mice, intragastric PG–OJ extract 10.2 g/kg (6.8 g/kg elsewhere in the source), mean ± SD, n = 6
endpoint: AUC(0–∞) (ng·min/g)
Numbers only; they are read as ng·min/g.

Problem: AUC(0–∞) for CC(C)=CCC[C@](C)(O)[C@H]1CC[C@]2(C)[C@@H]1[C@H](O)C[C@@H]1[C@@]3(C)CC[C@H](O)C(C)(C)[C@@H]3[C@@H](O[C@@H]3O[C@H](CO)[C@@H](O)[C@H](O)[C@H]3O)C[C@]12C [Ginsenoside Rh1] ?
Result: 1724.14

Problem: AUC(0–∞) for CC(C)=CCC[C@](C)(O[C@@H]1O[C@H](CO[C@@H]2OC[C@H](O)[C@H](O)[C@H]2O)[C@@H](O)[C@H](O)[C@H]1O)[C@H]1CC[C@]2(C)[C@@H]1[C@H](O)C[C@@H]1[C@@]3(C)CC[C@H](O[C@@H]4O[C@H](CO)[C@@H](O)[C@H](O)[C@H]4O[C@@H]4O[C@H](CO)[C@@H](O)[C@H](O)[C@H]4O)C(C)(C)[C@@H]3CC[C@]12C [Ginsenoside Rb2] ?
Result: 6076.50

* * *

Test: Lung-tissue pharmacokinetics of PG–OJ components in tumor-bearing mice (UPLC–MS/MS)
Assay type: in vivo, BALB/c nude male mice
Conditions: lung tissue, A549 tumor-bearing mice, intragastric PG–OJ extract 10.2 g/kg (6.8 g/kg elsewhere in the source), mean ± SD, n = 6
endpoint: AUC(0–t) (ng·min/g)
Numbers only; they are read as ng·min/g.

Problem: AUC(0–t) for CC(C)=CCC[C@](C)(O[C@@H]1O[C@H](CO)[C@@H](O)[C@H](O)[C@H]1O)[C@H]1CC[C@]2(C)[C@@H]1[C@H](O)C[C@@H]1[C@@]3(C)CC[C@H](O)C(C)(C)[C@@H]3[C@@H](O[C@@H]3O[C@H](CO)[C@@H](O)[C@H](O)[C@H]3O)C[C@]12C [Ginsenoside Rg1] ?
Result: 2295.03

Problem: AUC(0–t) for CC(C)=CCC[C@](C)(O[C@@H]1O[C@H](CO[C@@H]2OC[C@H](O)[C@H](O)[C@H]2O)[C@@H](O)[C@H](O)[C@H]1O)[C@H]1CC[C@]2(C)[C@@H]1[C@H](O)C[C@@H]1[C@@]3(C)CC[C@H](O[C@@H]4O[C@H](CO)[C@@H](O)[C@H](O)[C@H]4O[C@@H]4O[C@H](CO)[C@@H](O)[C@H](O)[C@H]4O)C(C)(C)[C@@H]3CC[C@]12C [Ginsenoside Rb2] ?
Result: 3935.63

Problem: AUC(0–t) for CC(C)=CCC[C@](C)(O)[C@H]1CC[C@]2(C)[C@@H]1[C@H](O)C[C@@H]1[C@@]3(C)CC[C@H](O[C@@H]4O[C@H](CO)[C@@H](O)[C@H](O)[C@H]4O[C@@H]4O[C@H](CO)[C@@H](O)[C@H](O)[C@H]4O)C(C)(C)[C@@H]3CC[C@]12C [Ginsenoside Rg3] ?
Result: 1879.87

Problem: AUC(0–t) for CC(C)=CCC[C@](C)(O[C@@H]1O[C@H](CO[C@@H]2OC[C@@H](O)[C@H](O)[C@H]2O)[C@@H](O)[C@H](O)[C@H]1O)[C@H]1CC[C@]2(C)[C@@H]1[C@H](O)C[C@@H]1[C@@]3(C)CC[C@H](O[C@@H]4O[C@H](CO)[C@@H](O)[C@H](O)[C@H]4O[C@@H]4O[C@H](CO)[C@@H](O)[C@H](O)[C@H]4O)C(C)(C)[C@@H]3CC[C@]12C [Ginsenoside Rb3] ?
Result: 4049.29

* * *

Experiment: Lung-tissue pharmacokinetics of PG–OJ components in tumor-bearing mice (UPLC–MS/MS)
Assay type: in vivo, BALB/c nude male mice
Conditions: male, BALB/c nude, mouse, po; lung tissue, A549 tumor-bearing mice, intragastric PG–OJ extract 10.2 g/kg (6.8 g/kg elsewhere in the source), mean ± SD, n = 6; read-out: Cmax
endpoint: Cmax (ng/g)
Numbers only; they are read as ng/g.

Problem: Cmax for CC(C)=CCC[C@](C)(O[C@@H]1O[C@H](CO)[C@@H](O)[C@H](O)[C@H]1O)[C@H]1CC[C@]2(C)[C@@H]1[C@H](O)C[C@@H]1[C@@]3(C)CC[C@H](O)C(C)(C)[C@@H]3[C@@H](O[C@@H]3O[C@H](CO)[C@@H](O)[C@H](O)[C@H]3O)C[C@]12C [Ginsenoside Rg1] ?
Result: 50.2

Problem: Cmax for CC(C)=CC/C=C(\C)[C@H]1CC[C@]2(C)[C@@H]1[C@H](O)C[C@@H]1[C@@]3(C)CC[C@H](O[C@@H]4O[C@H](CO)[C@@H](O)[C@H](O)[C@H]4O[C@@H]4O[C@H](CO)[C@@H](O)[C@H](O)[C@H]4O)C(C)(C)[C@@H]3CC[C@]12C [Ginsenoside Rg5] ?
Result: 7970

Problem: Cmax for CC(C)=CCC[C@](C)(O[C@@H]1O[C@H](CO[C@@H]2O[C@@H](CO)[C@H](O)[C@H]2O)[C@@H](O)[C@H](O)[C@H]1O)[C@H]1CC[C@]2(C)[C@@H]1[C@H](O)C[C@@H]1[C@@]3(C)CC[C@H](O[C@@H]4O[C@H](CO)[C@@H](O)[C@H](O)[C@H]4O[C@@H]4O[C@H](CO)[C@@H](O)[C@H](O)[C@H]4O)C(C)(C)[C@@H]3CC[C@]12C [Ginsenoside Rc] ?
Result: 43

* * *

Test: Lung-tissue pharmacokinetics of PG–OJ components in tumor-bearing mice (UPLC–MS/MS)
Type: in vivo, BALB/c nude male mice
Details: male, BALB/c nude, mouse, po; lung tissue, A549 tumor-bearing mice, intragastric PG–OJ extract 10.2 g/kg (6.8 g/kg elsewhere in the source), mean ± SD, n = 6; read-out: Cmax
endpoint: Cmax
The answer consists of two parts: a number and, after it, its unit.

Problem: Cmax for CC(C)=CCC[C@](C)(O[C@@H]1O[C@H](CO)[C@@H](O)[C@H](O)[C@H]1O)[C@H]1CC[C@]2(C)[C@@H]1[C@H](O)C[C@@H]1[C@@]3(C)CC[C@H](O)C(C)(C)[C@@H]3[C@@H](O[C@@H]3O[C@H](CO)[C@@H](O)[C@H](O)[C@H]3O[C@@H]3O[C@@H](C)[C@H](O)[C@@H](O)[C@H]3O)C[C@]12C [Ginsenoside Re] ?
Result: 132 ng/g

Problem: Cmax for CC(C)=CCC[C@](C)(O[C@@H]1O[C@H](CO[C@@H]2OC[C@H](O)[C@H](O)[C@H]2O)[C@@H](O)[C@H](O)[C@H]1O)[C@H]1CC[C@]2(C)[C@@H]1[C@H](O)C[C@@H]1[C@@]3(C)CC[C@H](O[C@@H]4O[C@H](CO)[C@@H](O)[C@H](O)[C@H]4O[C@@H]4O[C@H](CO)[C@@H](O)[C@H](O)[C@H]4O)C(C)(C)[C@@H]3CC[C@]12C [Ginsenoside Rb2] ?
Result: 7.2 ng/g

Problem: Cmax for CC(C)=CCC[C@](C)(O[C@@H]1O[C@H](CO)[C@@H](O)[C@H](O)[C@H]1O)[C@H]1CC[C@]2(C)[C@@H]1[C@H](O)C[C@@H]1[C@@]3(C)CC[C@H](O[C@@H]4O[C@H](CO)[C@@H](O)[C@H](O)[C@H]4O[C@@H]4O[C@H](CO)[C@@H](O)[C@H](O)[C@H]4O)C(C)(C)[C@@H]3CC[C@]12C [Ginsenoside Rd] ?
Result: 83 ng/g

Problem: Cmax for CC(C)=CCC[C@](C)(O[C@@H]1O[C@H](CO[C@@H]2OC[C@@H](O)[C@H](O)[C@H]2O)[C@@H](O)[C@H](O)[C@H]1O)[C@H]1CC[C@]2(C)[C@@H]1[C@H](O)C[C@@H]1[C@@]3(C)CC[C@H](O[C@@H]4O[C@H](CO)[C@@H](O)[C@H](O)[C@H]4O[C@@H]4O[C@H](CO)[C@@H](O)[C@H](O)[C@H]4O)C(C)(C)[C@@H]3CC[C@]12C [Ginsenoside Rb3] ?
Result: 5.92 ng/g

Problem: Cmax for CC(C)=CCC[C@](C)(O[C@@H]1O[C@H](CO[C@@H]2O[C@H](CO)[C@@H](O)[C@H](O)[C@H]2O)[C@@H](O)[C@H](O)[C@H]1O)[C@H]1CC[C@]2(C)[C@@H]1[C@H](O)C[C@@H]1[C@@]3(C)CC[C@H](O[C@@H]4O[C@H](CO)[C@@H](O)[C@H](O)[C@H]4O[C@@H]4O[C@H](CO)[C@@H](O)[C@H](O)[C@H]4O)C(C)(C)[C@@H]3CC[C@]12C [Ginsenoside Rb1] ?
Result: 441 ng/g

FYI, the data here is from paper PMC10819458.
